Test system: DDR2
particulars: concentration: 1 μM, replicates: in singlicate; n = 1;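 also: KINOMEscan kinase panel screen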
reported_property: %Inh (%)
Give the number; % is assumed, so skip it.

[[record]]
compound = "Nc1n[nH]c2cnc(-c3ccccc3)cc12"
subject_of_test = "DDR2"
val = 18

[[record]]
compound = "CCCCc1nn2ncccc2c1-c1ccnc(Nc2ccc(N3CCN(C)CC3)cc2)n1"
subject_of_test = "DDR2"
val = 96.2

[[record]]
compound = "COc1cccc(C2=C(Nc3ccc(Cl)c(C(=O)O)c3)C(=O)NC2=O)c1"
subject_of_test = "DDR2"
val = 36

[[record]]
compound = "c1ccc(Oc2ccc(Nc3ccnc4cc(-c5ccc(CNCCN6CCOCC6)o5)ccc34)cc2)nc1"
subject_of_test = "DDR2"
val = 50

[[record]]
compound = "COc1cc(Nc2ncc3c(C)nc(-c4cc5ccccc5[nH]4)n3n2)cc(OC)c1OC"
subject_of_test = "DDR2"
val = 52

[[record]]
compound = "O=c1[nH]cc(-c2ccc(N3CCOCC3)cc2)c2sc(-c3cn[nH]c3)cc12"
subject_of_test = "DDR2"
val = 0

[[record]]
compound = "CN1CCN(CCCNc2nccc(-c3c(-c4ccc(F)cc4)nn4cc(C(F)(F)F)ccc34)n2)CC1"
subject_of_test = "DDR2"
val = 81

[[record]]
compound = "COC(=O)Nc1nc2ccc(Oc3ccc(NC(=O)Nc4cc(C(F)(F)F)ccc4F)cc3)cc2n1C.Cl"
subject_of_test = "DDR2"
val = 99.9


Q: Could you tell me which %Inh is on file for Clc1ccc(-c2nn3ncccc3c2-c2ccnc(Nc3ccc4c(c3)OCCO4)n2)cc1 ?
A: 95.9

Q: Could you tell me which %Inh is on file for Nc1ncc(-c2cccnc2)c2scc(-c3ccc4c(c3)CCN4C(=O)Cc3ccccc3)c12 ?
A: 0

Q: Could you tell me which %Inh is on file for COc1cc(Nc2nccc(N3CCC(NC(=O)Nc4cccc(C(C)=O)c4)C3)n2)cc(OC)c1OC (centres unmarked) ?
A: 8

Q: Could you tell me which %Inh is on file for Cl.Cl.NCC(NCc1ccc(-c2ccnc3[nH]ccc23)s1)c1ccccc1 (centres unmarked) ?
A: 34

Q: Could you tell me which %Inh is on file for COc1cc(Nc2nccc(-c3c(-c4cccc(NC(=O)c5c(F)cccc5F)c4)nn4ccccc34)n2)cc(OC)c1OC ?
A: 61

====

Test system: JAK1(JH2domain-pseudokinase)
particulars: concentration: 1 μM, replicates: in singlicate; n = 1
The following molecules are listed with their measured %Inh values.
Give the number; % is assumed, so skip it.

Examples with their reported %Inh follow.
[[record]]
molecule = "CNC(=O)c1ccccc1Nc1nc(Nc2ccc(N3CCOCC3)cc2)ncc1Cl.Cl [GSK1576028]"
reported_property = "%Inh"
val = 99.9

[[record]]
molecule = "COc1ccc(CNC(=O)NC2CCN(c3ccnc(Nc4ccc(F)cc4)n3)CC2)cc1 [GSK1379788]"
reported_property = "%Inh"
val = 0

[[record]]
molecule = "Oc1cc(Nc2ccnc3cc(I)ccc23)ccc1F [GW552771]"
reported_property = "%Inh"
val = 0

[[record]]
molecule = "COCCOCCOc1cc2ncc3c4ccc(C#N)cc4[nH]c3c2cc1OC"
reported_property = "%Inh"
val = 68

[[record]]
molecule = "c1ccc(-c2cnc3nccnn23)cc1 [AH20685]"
reported_property = "%Inh"
val = 0


Q: Give JAK1(JH2domain-pseudokinase) %Inh for Cl.c1ccc(-c2ccc3c(Nc4ccc5[nH]ccc5c4)ccnc3c2)nc1 [GW440138]
A: 0

Q: Give JAK1(JH2domain-pseudokinase) %Inh for COc1cc(Nc2ncc3c(C)nc(-c4cc5ccccc5[nH]4)n3n2)cc(OC)c1OC [GW869516]
A: 98.5

Q: Give JAK1(JH2domain-pseudokinase) %Inh for FC(F)(F)c1ccc(/C=C/c2cncnc2Nc2ccc3[nH]c(Cc4ccccc4)nc3c2)cc1 [GW709199]
A: 2

Q: Give JAK1(JH2domain-pseudokinase) %Inh for O=C(Nc1cccc(-c2nn3ncccc3c2-c2ccnc(Nc3ccccc3)n2)c1)c1c(F)cccc1F [GSK198271]
A: 0

====

System: NEK10
particulars: concentration: 1 μM, replicates: in singlicate; n = 1
The following compounds are listed with their measured %Inh values.
Give the number; % is assumed, so skip it.

Examples with their reported %Inh follow.
[[record]]
compound = "COc1ccc(Nc2nccc(NCCNC(=O)c3cc4ccccc4s3)n2)cc1 [GSK1379896]"
unit_string = "%"
val = 0

[[record]]
compound = "O=C(Nc1cccc(Oc2ccc3nc(NC(=O)C4CC4)cn3n2)c1)c1ccccc1C(F)(F)F"
unit_string = "%"
val = 0

[[record]]
compound = "FC(F)(F)c1ccc(/C=C/c2cncnc2Nc2ccc3[nH]c(Cc4ccccc4)nc3c2)cc1 [GW709199]"
unit_string = "%"
val = 0

[[record]]
compound = "CN1CCN(Cc2cccc(-c3ccc4c(Nc5ccc(Oc6ccccc6)cc5)ccnc4c3)c2)CC1 [GW578342]"
unit_string = "%"
val = 0

[[record]]
compound = "Cl.c1ccc(-c2ccc3c(Nc4ccc5[nH]ccc5c4)ccnc3c2)nc1 [GW440138]"
unit_string = "%"
val = 1


Would you kindly look at the next entry?
Q: Could you tell me which %Inh is on file for COc1cc(Nc2nccc(-c3c(-c4cccc(NC(=O)c5c(F)cccc5F)c4)nn4ncccc34)n2)cc(OC)c1OC [GSK327238] ?
A: 15

====

The following compounds are listed with their measured %Inh values.
Test system: MST1R
particulars: concentration: 1 μM, replicates: in singlicate; n = 1
Give the number; % is assumed, so skip it.

Examples with their reported %Inh follow.
[[record]]
compound = "CC(=O)N1CCN(c2ccc(Nc3nccc(-c4sc(C(C)C)nc4-c4cccc(NS(=O)(=O)c5cccc(Cl)c5)c4)n3)cn2)CC1 [GSK1660437]"
unit_string = "%"
val = 15

[[record]]
compound = "COC(=O)Nc1nc2ccc(Oc3ccc(NC(=O)Nc4cc(C(F)(F)F)ccc4F)cc3)cc2n1C.Cl [GW692089]"
unit_string = "%"
val = 14

[[record]]
compound = "Cc1cccc(NC(=O)Nc2ccc(Oc3ncnc4ccn(C)c34)cc2)c1"
unit_string = "%"
val = 7

[[record]]
compound = "Cc1ccc(C)c(NC(=O)NC2CCN(c3ccnc(Nc4ccc(F)cc4)n3)C2)c1 (stereo not shown) [GSK1379720]"
unit_string = "%"
val = 38

[[record]]
compound = "O=C(Nc1cccc(-c2nn3ccccc3c2-c2ccnc(Nc3cccc(F)c3)n2)c1)c1c(F)ccc(F)c1Cl [GSK357952]"
unit_string = "%"
val = 50

[[record]]
compound = "CN(c1ccc(NC(=O)Nc2cc(C(F)(F)F)ccc2F)cc1)c1ccnc(Nc2ccc(S(N)(=O)=O)cc2)n1 [GW809893]"
unit_string = "%"
val = 99.7


Would you kindly look at the next entry?
Q: Could you tell me which %Inh is on file for COc1ccc(-c2coc3ccc(-c4nnc(SCc5ccc(OC)c(C(F)(F)F)c5)o4)cc23)cc1 ?
A: 0

====

Tested on: GRK1
particulars: concentration: 1 μM, replicates: in singlicate; n = 1
reported_property: %Inh (%)
Give the number; % is assumed, so skip it.

Examples with their reported %Inh follow.
[[record]]
compound = "CC(=O)N1CCN(c2ccc(Nc3nccc(-c4sc(C(C)C)nc4-c4cccc(NS(=O)(=O)c5cccc(Cl)c5)c4)n3)cn2)CC1"
val = 0

[[record]]
compound = "CCS(=O)(=O)c1ccc(OC)c(Nc2nccc(-c3c(-c4cccc(NC(=O)c5c(F)cccc5F)c4)nn4ncccc34)n2)c1"
val = 0

[[record]]
compound = "Cc1ccc(C)c(NC(=O)NC2CCN(c3ccnc(Nc4ccc(F)cc4)n3)C2)c1 (stereo not drawn)"
val = 0

[[record]]
compound = "COc1cc(Nc2nccc(N3CCC(NC(=O)c4cc5ccccc5s4)C3)n2)cc(OC)c1OC (stereo not drawn)"
val = 0

[[record]]
compound = "COc1cc(Nc2nccc(N3CCC(NC(=O)Nc4cccc(C(C)=O)c4)C3)n2)cc(OC)c1OC (stereo not drawn)"
val = 2


Q: Could you tell me which %Inh is on file for Cl.c1ccc(-c2ccc3c(Nc4ccc5[nH]ncc5c4)ccnc3c2)nc1 ?
A: 0

====

The following molecules are listed with their measured %Inh values.
Tested on: SRMS
particulars: concentration: 1 μM, replicates: in singlicate; n = 1
Give the number; % is assumed, so skip it.

[[record]]
molecule = "Clc1ccc(-c2nn3ncccc3c2-c2ccnc(Nc3ccc4c(c3)OCCO4)n2)cc1"
unit_string = "%"
val = 13


Q: Could you tell me which %Inh is on file for O=C(Nc1cccc(-c2nn3ncccc3c2-c2ccnc(Nc3ccccc3)n2)c1)c1c(F)cccc1F ?
A: 94.9

Q: Could you tell me which %Inh is on file for COc1cc(Nc2nccc(N3CCC(NC(=O)c4cc5ccccc5s4)C3)n2)cc(OC)c1OC (stereo not drawn) ?
A: 8
